We label by threshold. Values of intrinsic clearance, rat liver microsomes strictly beneath 500 mL/min/kg are Met. Values of 500 mL/min/kg and up are Not met.

smiles_record=CC(C)[C@H](Nc1ncc(Cl)cn1)C(=O)N1CCCC1 assigned_class=Met
smiles_record=CCN(CC)C(=O)c1ccc(NC(C)=O)cc1 assigned_class=Met
smiles_record=CC(C)c1ccc(NC(=O)c2ccc3nccnc3c2)cc1 assigned_class="Not met"
smiles_record=O=C(NC1CC1)c1cccc2cccnc12 assigned_class=Met
smiles_record=COc1ccc(OCC(=O)Nc2cccc(Cl)c2N2CCN(C(C)=O)CC2)cc1 assigned_class="Not met"
smiles_record=CCNC(=O)c1cc(N2CCC(N3CCCC3=O)CC2)ccn1 assigned_class=Met
smiles_record=CC1(C)CC[C@]2(NC(=O)C(C)(F)F)CC[C@]3(C)[C@H](C(=O)C=C4[C@@]5(C)C=C(C#N)C(=O)C(C)(C)[C@@H]5CC[C@]43C)[C@@H]2C1 assigned_class=Met
smiles_record=O=C(NC1CCCC1)N1CCN(c2nccn3nc4c(c23)CCCC4)CC1 assigned_class=Met
smiles_record=COc1cc(F)ccc1-c1ncnc(Nc2cccc(C[S@@](C)(=N)=O)c2)n1 assigned_class=Met
smiles_record=CCc1cc(N2CCOCC2)nc(C2CCN(C(=O)C3CC3)CC2)n1 assigned_class=Met

Measured values drawn from the Biogen ADME set (Fang et al. 2023) for this set.
